- SYSTEM NAME: Substance-P receptor (Homo sapiens, UniProt P25103)
- Sequence (P25103 whole entry): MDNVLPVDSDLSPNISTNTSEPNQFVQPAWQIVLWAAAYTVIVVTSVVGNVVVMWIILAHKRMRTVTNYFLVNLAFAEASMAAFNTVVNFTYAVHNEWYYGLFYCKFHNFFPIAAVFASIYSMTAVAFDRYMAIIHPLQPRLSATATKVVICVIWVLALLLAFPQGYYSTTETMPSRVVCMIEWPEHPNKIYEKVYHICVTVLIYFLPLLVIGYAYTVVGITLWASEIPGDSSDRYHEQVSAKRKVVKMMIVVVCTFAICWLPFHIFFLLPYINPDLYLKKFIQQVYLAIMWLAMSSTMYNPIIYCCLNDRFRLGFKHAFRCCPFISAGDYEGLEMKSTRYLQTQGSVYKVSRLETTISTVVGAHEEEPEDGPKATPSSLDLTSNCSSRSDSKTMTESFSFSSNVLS
PARAMETER MEASURED: IC50

State IC50 (Substance-P receptor (Homo sapiens, UniProt P25103)) of COC(=O)N(NC(=O)c1c(OC)c(-c2ccccc2)nc2ccccc12)c1ccccc1 .
> 1000 nM

###

- EXPERIMENT NOTES: Metabolic stability in rat liver microsomes after 15 mins
- Format: ADME, Microsome
- ASSAY CONDITIONS: read-out: Stability
In this section, each of the compounds is paired with its reported remaining at 0.25 h.
The reply should contain only the number, in %.

COc1c(-c2ccccc2)nc2ccccc2c1C(=O)NN(c1ccccc1)c1ccccc1
65

Kindly review the next compound as well.
Please list remaining at 0.25 h recorded for the compound COC(=O)N(NC(=O)c1c(OC)c(-c2ccccc2)nc2ccccc12)c1ccccc1
21
